target: Beta-secretase 1 (Homo sapiens, UniProt P56817); experiment: Inhibition of Beta-secretase 1 at 2 uM concentration
Sequence (P56817 whole entry): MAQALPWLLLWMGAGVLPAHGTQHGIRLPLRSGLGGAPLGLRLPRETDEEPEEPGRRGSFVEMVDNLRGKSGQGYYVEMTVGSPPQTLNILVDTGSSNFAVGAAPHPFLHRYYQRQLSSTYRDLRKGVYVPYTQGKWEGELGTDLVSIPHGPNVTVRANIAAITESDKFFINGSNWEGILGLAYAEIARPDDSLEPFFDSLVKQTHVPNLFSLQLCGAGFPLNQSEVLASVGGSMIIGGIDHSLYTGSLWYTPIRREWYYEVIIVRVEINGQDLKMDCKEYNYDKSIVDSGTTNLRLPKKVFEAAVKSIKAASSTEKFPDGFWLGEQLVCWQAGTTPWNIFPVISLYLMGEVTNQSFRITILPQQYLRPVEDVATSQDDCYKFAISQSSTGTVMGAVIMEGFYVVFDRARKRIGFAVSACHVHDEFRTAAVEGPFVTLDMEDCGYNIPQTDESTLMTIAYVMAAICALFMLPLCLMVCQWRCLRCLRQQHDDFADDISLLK
Where a SMILES comes first, the peptide text is derived from it.
Reported Endpoint: inhibition (%)

Before answering, review these 2 worked examples.
Molecule	Assayed System	inhibition, %
CC(C)C[C@H](NC(=O)[C@@H](NC(=O)[C@@H](N)CCC(=O)O)C(C)C)C(=O)N[C@@H](Cc1ccccc1)[C@@H](O)C(=O)N[C@@H](CC(=O)O)C(=O)N[C@@H](C)C(=O)N[C@@H](CCC(=O)O)C(=O)NCC(=O)O (HELM PEPTIDE1{E.V.L.[O=C([C@H](O)[C@H](Cc1ccccc1)N[*:1])[*:2]].D.A.E.G}$$$$V2.0)	Beta-secretase 1 (Homo sapiens, UniProt P56817)	65
CC(C)C[C@H](NC(=O)[C@@H](NC(=O)[C@@H](N)CCC(=O)O)C(C)C)C(=O)N[C@@H](Cc1ccccc1)[C@@H](O)C(=O)N[C@@H](CC(=O)O)C(=O)NC(C)C(=O)NCC(=O)N[C@@H](Cc1ccccc1)C(=O)O (single isomer, unassigned)	Beta-secretase 1 (Homo sapiens, UniProt P56817)	56

1. CC(C)C[C@H](NC(=O)[C@@H](NC(=O)[C@@H](N)CCC(=O)O)C(C)C)C(=O)N[C@@H](Cc1ccccc1)[C@@H](O)C(=O)Nc1cccc(C(=O)O)c1 (mixture of isomers)
2. CC(C)C[C@H](NC(=O)[C@@H](NC(=O)[C@@H](N)CCC(=O)O)C(C)C)C(=O)N[C@@H](Cc1ccccc1)[C@@H](O)C(=O)NCc1ccc(C(=O)O)cc1
Response body: label of entry with the larger inhibition; valid values 1 , 2 . Your answer should be the label of the entry you select.
1

###

biological target: UniProtKB P56817; experiment: Inhibition of Beta-secretase 1 at 2 uM concentration
Where a SMILES comes first, the peptide text is derived from it.
Reported Endpoint: inhibition (%)

Compound	Assayed System	Value Units	inhibition
CC(C)C[C@H](NC(=O)[C@@H](NC(=O)[C@@H](N)CCC(=O)O)C(C)C)C(=O)N[C@@H](Cc1ccccc1)[C@@H](O)C(=O)NCc1cccc(C(=O)O)c1	UniProtKB P56817	%	64
CC(C)C[C@H](NC(=O)[C@@H](NC(=O)[C@@H](N)CCC(=O)O)C(C)C)C(=O)N[C@@H](Cc1ccccc1)[C@@H](O)C(=O)N[C@@H](CC(=O)O)C(=O)N[C@@H](C)C(=O)N[C@@H](CCC(=O)O)C(=O)O (HELM PEPTIDE1{E.V.L.[O=C([C@H](O)[C@H](Cc1ccccc1)N[*:1])[*:2]].D.A.E}$$$$V2.0)	UniProtKB P56817	%	60
CC(C)C[C@H](NC(=O)[C@@H](NC(=O)[C@@H](N)CCC(=O)O)C(C)C)C(=O)N[C@@H](Cc1ccccc1)[C@@H](O)C(=O)Nc1ccc(C(=O)O)cc1	UniProtKB P56817	%	79
CC(C)C[C@H](NC(=O)[C@@H](NC(=O)[C@@H](N)CCCC(=O)O)C(C)C)C(=O)N[C@@H](Cc1ccccc1)[C@@H](O)C(=O)N[C@@H](CC(=O)O)C(=O)N[C@@H](C)C(=O)N[C@@H](CCC(=O)O)C(=O)O (HELM PEPTIDE1{[N[C@@H](CCCC(=O)O)C(=O)[*:2]].V.L.[O=C([C@H](O)[C@H](Cc1ccccc1)N[*:1])[*:2]].D.A.E}$$$$V2.0)	UniProtKB P56817	%	43
CC(C)C[C@H](NC(=O)[C@@H](NC(=O)[C@@H](N)CCC(=O)O)C(C)C)C(=O)N[C@@H](Cc1ccccc1)[C@@H](O)C(=O)N[C@@H](CC(=O)O)C(=O)NCC(=O)N[C@@H](CCC(=O)O)C(=O)N[C@@H](Cc1ccccc1)C(=O)O (HELM PEPTIDE1{E.V.L.[O=C([C@H](O)[C@H](Cc1ccccc1)N[*:1])[*:2]].D.G.E.F}$$$$V2.0)	UniProtKB P56817	%	73
